Data origin, for the record: PubChem BioAssay (NCI)

# Test system: ACHN renal
# assay comment: NCI-60 one-dose screen, 48 h (100 = growth as untreated, 0 = no growth, -100 = all killed)
# condition: 10 µM unless noted
The panel holds about 83,000 compounds, 20% with a hit somewhere; the sample as a whole holds those more often.
property measured: growth (%)
Expressed in %, but write only the number.

# annotated cases, reported growth shown
{"compound": "O=C(CCc1nnco1)c1nc2ccc([N+](=O)[O-])cc2[nH]1", "property measured": "growth", "quantitative readout": 101}
{"compound": "Cc1ccc(SC2c3ccc(C)cc3Oc3nc(N)c(C#N)c(N)c32)cc1 (stereo unspecified)", "property measured": "growth", "quantitative readout": 68.1}
{"compound": "COc1ccc(/C=C(/C(=O)N2CCCC2)c2cc(OC)c(OC)c(OC)c2)cc1", "property measured": "growth", "quantitative readout": 54.5}
{"compound": "O=C(CCl)N1CCCc2ccccc21", "property measured": "growth", "quantitative readout": 101}
{"compound": "O=Cc1[nH]c(Sc2ccccc2)c2ccccc12", "property measured": "growth", "quantitative readout": 96.6}

[Q] Give the measured growth of COc1ccccc1N1CCN(CCCOc2ccc(C(=O)/C=C3/C(=O)Nc4ccccc43)cc2)CC1 .
[A] 74.2

* * *

# Tested on: MCF7 breast
# assay comment: NCI-60 one-dose screen, 48 h
# condition: 10 µM unless noted
The panel holds about 83,000 compounds, 20% with a hit somewhere; the sample as a whole holds those more often. Active and inactive are the calls of the source. How the source made its calls: active means growth percent below 10; inactive means the rest.
Your reply should match one of these outcome classes. Y for active, N for inactive

These recorded examples may help you get a feel for the data.
{"molecule": "C=C1C(=O)O[C@H]2[C@H]1CC/C(COC(=O)N1CCC[C@H]1C(=O)Nc1ccc(OC)c(C(N)=O)c1O)=C\\CC[C@@]1(C)O[C@@H]21", "group": "N"}
{"molecule": "Cc1cccc(C)c1NCc1nnc(-c2ccco2)o1", "group": "N"}
{"molecule": "C=C1C(=O)O[C@H]2[C@H]1CC/C(COC(=O)CCCCC(=O)OC/C1=C/CC[C@@]3(C)O[C@H]3[C@H]3OC(=O)C(=C)[C@@H]3CC1)=C\\CC[C@@]1(C)O[C@@H]21", "group": "N"}

[Q] Give the logged outcome of this assay for the following molecule: COc1ccc(C2=NN(c3ccc(S(N)(=O)=O)cc3)C(c3ccc(Cl)cc3)C2)c(O)c1 (configuration not stated)
[A] N

[Q] CCOC(=O)c1c(C)nc2c(c1N)/C(=C/c1cccs1)C(=O)N2Cc1ccccc1 ?
[A] Y

[Q] Also O=C(/C(=C\c1c(-c2ccccc2)[nH]c2ccccc12)S(=O)(=O)c1ccccc1)c1ccccc1 ?
[A] N

[Q] Same question for C=C(C)[C@@H]1CC[C@]2(C(=O)n3ccnc3)CC[C@]3(C)[C@H](CC[C@@H]4[C@@]5(C)CCCNC(C)(C)[C@@H]5CC[C@]43C)[C@@H]12 please.
[A] Y

* * *

growth: recorded values
# Test system: NCI-H226 lung
# assay comment: NCI-60 one-dose screen, 48 h (100 = growth as untreated, 0 = no growth, -100 = all killed)
# condition: 10 µM unless noted
The panel holds about 83,000 compounds, 20% with a hit somewhere; the sample as a whole holds those more often.
Response body: numeric value in %, unit text excluded.

Some compounds with recorded growth:
{"compound": "N#Cc1c(-c2ccc(F)cc2)nc(N=Nc2c(O)[nH]c3ccccc23)nc1N1CCOCC1", "subject of test": "NCI-H226 lung", "unit": "%", "growth": 57.7}
{"compound": "N#CC1C(c2ccc(Cl)cc2)=Nc2c(c(-c3ccccc3)nn2-c2ccccc2)C12C(=O)Nc1ccc(Cl)cc12 (centres undefined)", "subject of test": "NCI-H226 lung", "unit": "%", "growth": 61.5}
{"compound": "Cc1ccc(C2=N[C@H]3CCC[C@@H]3N(c3ccccc3)C(C(Cl)Cl)=N2)cc1", "subject of test": "NCI-H226 lung", "unit": "%", "growth": 107}
{"compound": "CCOC(=O)c1c(C)nc2c(c1N)/C(=C/c1ccc[nH]1)C(=O)N2Cc1ccc(C(F)(F)F)cc1", "subject of test": "NCI-H226 lung", "unit": "%", "growth": 38.1}
{"compound": "Cc1nc(C)c(C)nc1C", "subject of test": "NCI-H226 lung", "unit": "%", "growth": 104}
{"compound": "C#C[C@@]1(O)[C@@H](CO)O[C@@H](n2ccc3c(N)ncnc32)[C@@H]1O", "subject of test": "NCI-H226 lung", "unit": "%", "growth": -54.4}

Next compound, growth to be filled in.
[Q] Identify the measured growth of C=C1C(=O)O[C@H]2[C@H]1CC/C(COC(=O)c1cn(C)c3ccccc13)=C\CC[C@@]1(C)O[C@@H]21 for NCI-H226 lung.
[A] -36.5
